- Target entity: human VR1 (Homo sapiens)
- Sequence (Q8NER1 whole entry): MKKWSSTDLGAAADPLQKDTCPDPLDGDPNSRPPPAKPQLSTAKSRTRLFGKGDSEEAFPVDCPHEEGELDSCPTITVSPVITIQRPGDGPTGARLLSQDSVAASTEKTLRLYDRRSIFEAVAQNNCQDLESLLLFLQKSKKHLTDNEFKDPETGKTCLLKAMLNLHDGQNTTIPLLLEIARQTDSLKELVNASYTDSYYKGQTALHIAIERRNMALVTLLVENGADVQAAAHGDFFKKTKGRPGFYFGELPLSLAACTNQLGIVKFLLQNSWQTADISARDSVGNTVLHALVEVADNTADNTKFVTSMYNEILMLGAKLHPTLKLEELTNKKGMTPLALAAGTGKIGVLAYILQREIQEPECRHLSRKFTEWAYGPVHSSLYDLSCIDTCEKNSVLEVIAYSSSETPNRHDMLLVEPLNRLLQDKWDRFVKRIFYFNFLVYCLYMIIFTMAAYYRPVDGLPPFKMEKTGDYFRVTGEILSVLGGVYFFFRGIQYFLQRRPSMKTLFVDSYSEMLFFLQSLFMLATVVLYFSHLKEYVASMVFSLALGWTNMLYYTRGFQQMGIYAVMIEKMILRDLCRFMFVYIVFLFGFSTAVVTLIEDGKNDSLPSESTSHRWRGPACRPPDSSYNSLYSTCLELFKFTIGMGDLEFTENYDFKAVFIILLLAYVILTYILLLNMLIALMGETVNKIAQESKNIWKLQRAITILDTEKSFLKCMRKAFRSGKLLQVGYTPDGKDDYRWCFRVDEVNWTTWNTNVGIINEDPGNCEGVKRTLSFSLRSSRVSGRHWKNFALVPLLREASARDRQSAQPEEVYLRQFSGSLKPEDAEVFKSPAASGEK
- Assay explanation: Acid stimulation assay (acid-induced intracellular calcium change, FDSS 6000)
- Format: cell-based
- Applied conditions: final assay buffer pH5.8, 15 min pre-incubation, read-out: IC50 (nM) Low pH
Measurement kind: IC50 (nM)

[[record]]
molecule_smiles = "Cc1cc([C@@H](C)NC(=O)c2cnc3cc(C(C)(C)C)ccc3c2)ccc1NS(C)(=O)=O"
readout_value = 56


P: Cc1cc([C@@H](C)NC(=O)c2ccc3ccc(C(F)(F)F)cc3c2)ccc1NS(C)(=O)=O
Q: Cc1cc([C@@H](C)NC(=O)c2ccc3cc(C(F)(F)F)ccc3n2)c(Cl)cc1NS(C)(=O)=O
Kindly identify the item with the lower IC50 figure among these two: P and Q Indicate your choice by writing its label.
P
(P: 4 nM, Q: 58 nM)

I: COc1ccccc1N1CCN(c2nc(C(F)(F)F)nc3ccc(C(=O)N[C@H](C)c4cc(C)c(NS(C)(=O)=O)cc4F)cc23)CC1
II: Cc1cc([C@@H](C)NC(=O)c2cnc3cc(C(C)(C)C)ccc3c2C)ccc1NS(C)(=O)=O
Endpoint returns whichever of I and II has the numerically higher IC50. Indicate your choice by writing its label.
II

I: Cc1cc([C@@H](C)NC(=O)c2ccc3nc(C(F)(F)F)cc(N4CC[C@@H](O)C4)c3c2)c(F)cc1NS(C)(=O)=O
II: Cc1cc([C@@H](C)NC(=O)c2ccc3nc(C(F)(F)F)nc(N4CCC(Cc5ccccc5)CC4)c3c2)c(F)cc1NS(C)(=O)=O
Kindly identify the item with the lower IC50 figure among these two: I and II Indicate your choice by writing its label.
II
